- ASSAYED TARGET: T1, extracellular domain of rhesus monkey BCMA (rhesus monkey, UniProt F7FFA0 1-53)
- T1 construct: extracellular domain; also called RhBCMA
- T1 sequence (F7FFA0 entry or part of it): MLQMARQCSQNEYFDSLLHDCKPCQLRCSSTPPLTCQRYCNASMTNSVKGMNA
- ASSAY NAME: Octet BLI; Fab 200 nM
For each entry below, report its pKd value.
One number for each entry, as −log10 of the molar value.

AB200-R1H32-R2Vk15 (Fab, V domains shown) VH: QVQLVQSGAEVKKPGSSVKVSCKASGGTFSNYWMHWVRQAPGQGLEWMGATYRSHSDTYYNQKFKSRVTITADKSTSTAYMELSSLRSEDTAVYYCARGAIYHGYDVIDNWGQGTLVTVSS VL: DIQMTQSPSSLSASVGDRVTITCRASQSISSYINWYQQKPGKAPKLLIYAASSLQSGVPSRFSGSGSGTDFTLTISSLQPEDFATYYCQQYRRIPWTFGQGTKLEIKR : 8.19

Field: next binder
Which value of pKd has been reported for AB200-R1H32-R2Vk23 (Fab, V domains shown) VH: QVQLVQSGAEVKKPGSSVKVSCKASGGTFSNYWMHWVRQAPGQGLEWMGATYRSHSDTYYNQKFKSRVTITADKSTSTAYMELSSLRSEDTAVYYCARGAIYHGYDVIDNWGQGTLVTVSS VL: DIQMTQSPSSLSASVGDRVTITCRASQSISSYLNWYQQKPGKAPKLLIYATSNLQSGVPSRFSGSGSGTDFTLTISSLQPEDFATYYCQQFRKIPWTFGQGTKLEIKR in the records?
8.29
